system: Human alphaherpesvirus 2; assay: Antiviral activity against herpes simplex virus-2.; type: functional, organism-based
pIC50: −log10 of the molar value.
The entries below come with measured pIC50 values attached.

Study these solved cases before continuing.
COc1ccc(OC)c2c(O)ccnc12 :: < 4.00
COc1ccc(O)c2c(O)ccnc12 :: < 4.00
COc1cc2nccc(O)c2cc1OC :: < 4.00
Nc1ccn([C@@H]2O[C@H](CO)[C@@H](O)[C@@H]2O)c(=O)n1 [CYTARABINE] :: 5.70
COc1ccc(Cl)c2nccc(O)c12 :: < 4.00

--- query ---
// field: pIC50; key: COc1cc2c(O)ccnc2cc1O ; value = < 4.00
